In what follows, each item is paired with its IC50 for UniProt P48775.
Sequence (P48775 whole entry): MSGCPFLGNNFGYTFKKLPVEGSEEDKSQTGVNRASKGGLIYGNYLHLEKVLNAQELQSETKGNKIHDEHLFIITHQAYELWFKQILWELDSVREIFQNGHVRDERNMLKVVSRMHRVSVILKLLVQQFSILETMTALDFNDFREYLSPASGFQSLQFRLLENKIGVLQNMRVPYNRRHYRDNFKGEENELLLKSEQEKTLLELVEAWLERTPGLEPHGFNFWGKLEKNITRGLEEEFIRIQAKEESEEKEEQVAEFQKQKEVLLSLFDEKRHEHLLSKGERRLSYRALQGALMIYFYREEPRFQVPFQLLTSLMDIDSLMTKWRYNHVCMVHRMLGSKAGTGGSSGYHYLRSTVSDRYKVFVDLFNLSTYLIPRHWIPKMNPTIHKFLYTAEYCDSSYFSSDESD

Some entries whose results are on file:
O=C(Nc1ccc(C2(C(=O)NCC3CC3)COC2)cc1)c1cccc(Cl)c1 [Example 7]    ≥ 10 µM
O=C(Nc1ccc(C2(C(=O)Nc3ccc(F)cc3)COC2)cc1)c1cccc(Cl)c1F [Example 3]    ≥ 10 µM

// lookup IC50 | system=UniProt P48775 | key= CC1CC1NC(=O)C1(c2ccc(NC(=O)c3cccc(Cl)c3)cc2)COC1 (single isomer, unassigned) [Example 8]
≥ 10 µM

What measured IC50 is associated with O=C(Nc1ccc(C2(C(=O)NCCC(F)(F)F)COC2)cc1)c1cccc(Cl)c1 [Example 6] on UniProt P48775?
≥ 10 µM

Origin of the recorded values: patent US11319295B2
